Attribution: patent US10246457B2

- targetSystem: 25P Btk enzyme (un-activated full-length Btk) (Homo sapiens (Human))
- Sequence (Q06187 whole entry): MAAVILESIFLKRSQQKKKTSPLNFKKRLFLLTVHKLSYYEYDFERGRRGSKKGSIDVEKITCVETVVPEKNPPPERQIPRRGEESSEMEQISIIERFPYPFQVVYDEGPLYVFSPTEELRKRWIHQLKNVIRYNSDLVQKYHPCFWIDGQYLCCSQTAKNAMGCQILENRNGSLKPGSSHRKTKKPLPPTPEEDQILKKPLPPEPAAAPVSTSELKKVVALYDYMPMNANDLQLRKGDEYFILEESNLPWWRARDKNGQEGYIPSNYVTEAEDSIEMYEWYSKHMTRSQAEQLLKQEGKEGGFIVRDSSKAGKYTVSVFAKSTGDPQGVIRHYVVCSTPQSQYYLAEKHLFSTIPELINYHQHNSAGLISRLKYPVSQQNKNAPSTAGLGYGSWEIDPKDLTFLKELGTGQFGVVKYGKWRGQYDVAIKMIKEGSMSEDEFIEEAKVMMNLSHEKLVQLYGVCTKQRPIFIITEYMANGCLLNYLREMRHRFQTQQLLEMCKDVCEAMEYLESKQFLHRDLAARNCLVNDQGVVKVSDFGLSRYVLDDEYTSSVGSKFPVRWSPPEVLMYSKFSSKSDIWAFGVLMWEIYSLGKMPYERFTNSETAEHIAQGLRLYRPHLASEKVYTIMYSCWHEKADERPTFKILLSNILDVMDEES
- protocolDetails: 25P Btk Enzyme Activity Assay (LANCE TR-FRET)
- Type: biochemical
- measurementContext: un-activated Btk (25P), 25 μM ATP, 60 minute compound and enzyme incubation; read-out: Btk binding IC50 (nM) with 25 P
measuredMetric: IC50 (nM)

chemicalSmiles: CC(C)(C)c1cc(F)c2c(c1)CCN(c1cccc(-c3cc(C(N)=O)c4[nH]nc(N)c4c3)c1CO)C2=O
measuredMetric: IC50
reading: 0.49
--
chemicalSmiles: CC(C)(C)c1cc(F)c2c(=O)n(-c3cccc(-c4cc(C(=O)O)c5[nH]nc(N)c5c4)c3CO)ncc2c1
measuredMetric: IC50
reading: 0.14
--
chemicalSmiles: CC(C)(C)c1cc(F)c2c(=O)n(-c3cccc(-c4cc(-c5cnn6c5CCCC6)c5[nH]nc(N)c5c4)c3CO)ncc2c1
measuredMetric: IC50
reading: 1.7
--
chemicalSmiles: Cc1c(NC(=O)c2ccc(C(C)(C)C(F)(F)F)cc2F)cccc1-c1cc(C(N)=O)c2[nH]nc(N)c2c1
measuredMetric: IC50
reading: 268
--
chemicalSmiles: Cc1c(NC(=O)c2ccc(C(C)(C)C)cc2F)cccc1-c1cc(C(N)=O)c2[nH]nc(N)c2c1
measuredMetric: IC50
reading: 64.5
--
chemicalSmiles: CC(C)n1cc(-c2cc(-c3cccc(-n4ncc5cc(C(C)(C)C)cc(F)c5c4=O)c3CO)cc3c(N)n[nH]c23)cn1
measuredMetric: IC50
reading: 0.15
